Listed here are binders together with their documented pKd.
- EXPERIMENTAL_TARGET: T1, Human CD100 (human, UniProt Q92854 22-734, limits assumed)
- T1 construct: also called SEMA4D; Hu CD100
- T1 sequence (looked up): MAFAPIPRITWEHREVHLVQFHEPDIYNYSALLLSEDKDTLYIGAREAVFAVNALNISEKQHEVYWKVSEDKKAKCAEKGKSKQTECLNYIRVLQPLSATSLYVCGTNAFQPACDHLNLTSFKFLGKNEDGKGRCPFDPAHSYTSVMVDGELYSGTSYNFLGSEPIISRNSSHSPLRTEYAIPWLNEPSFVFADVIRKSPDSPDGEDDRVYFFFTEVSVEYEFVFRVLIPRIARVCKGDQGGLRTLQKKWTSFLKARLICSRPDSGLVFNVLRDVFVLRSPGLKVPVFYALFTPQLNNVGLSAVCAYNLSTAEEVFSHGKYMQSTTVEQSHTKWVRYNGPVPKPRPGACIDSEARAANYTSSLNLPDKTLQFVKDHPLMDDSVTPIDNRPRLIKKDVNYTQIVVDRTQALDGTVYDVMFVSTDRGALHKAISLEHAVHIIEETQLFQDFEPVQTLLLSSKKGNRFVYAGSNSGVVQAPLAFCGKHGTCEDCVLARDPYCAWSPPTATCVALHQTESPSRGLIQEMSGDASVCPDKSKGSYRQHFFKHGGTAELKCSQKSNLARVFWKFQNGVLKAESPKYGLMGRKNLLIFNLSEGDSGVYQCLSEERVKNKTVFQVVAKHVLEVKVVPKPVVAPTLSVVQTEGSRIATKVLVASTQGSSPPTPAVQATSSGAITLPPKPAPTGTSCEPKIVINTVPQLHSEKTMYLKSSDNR
- PROTOCOL_DESCRIPTION: affinity testing, method and unit not printed in Example 10 (nM as in Table 3)
Quick note: pKd values are minus log10 of concentrations in mol/L.

As a guide, the following entries are already answered.
| BINDER | pKd |
| --- | --- |
| MAb 2225 (antibody, V domains shown, H1651 mutant VH combined with L284; also called H1651 Y60V with L284) VH: QVQLVQSGAEVKKPGSSVKVSCKASGYTFTDYYMDWVRQAPGQGLEWMGRVNPYHGGATVNQKFKGRVTITADKSTSTAYMELSSLRSEDTAVYYCAREENSYDGYYGMDYWGQGTLVTVSS VL: DIVMTQSPLSLPVSPGEPATINCKSSQSLFNSGNQKNYLAWYLQKPGQPPKLLIYGASTRESGVPDRFSGSGSGTDFTLTISSLQAEDVAVYYCQNDHTYPYTFGQGTKLEIK | 10.40 |
| MAb 2206 (antibody, V domains shown, H1651 mutant VH combined with L284; also called H1651 G57W with L284) VH: QVQLVQSGAEVKKPGSSVKVSCKASGYTFTDYYMDWVRQAPGQGLEWMGRVNPYHGWATYNQKFKGRVTITADKSTSTAYMELSSLRSEDTAVYYCAREENSYDGYYGMDYWGQGTLVTVSS VL: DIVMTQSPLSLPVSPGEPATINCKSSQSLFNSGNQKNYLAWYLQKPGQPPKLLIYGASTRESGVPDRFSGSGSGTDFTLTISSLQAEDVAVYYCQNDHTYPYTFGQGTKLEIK | 10.05 |

Now turn to the next binder.
Ask | Suppose we examine the binder MAb 2219 (antibody, V domains shown, H1651 mutant VH combined with L284; also called H1651 T59W with L284) VH: QVQLVQSGAEVKKPGSSVKVSCKASGYTFTDYYMDWVRQAPGQGLEWMGRVNPYHGGAWYNQKFKGRVTITADKSTSTAYMELSSLRSEDTAVYYCAREENSYDGYYGMDYWGQGTLVTVSS VL: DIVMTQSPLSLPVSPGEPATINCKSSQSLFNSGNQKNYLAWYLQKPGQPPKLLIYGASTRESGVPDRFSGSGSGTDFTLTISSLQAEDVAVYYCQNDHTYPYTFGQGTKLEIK ; what pKd value has been reported?
Reply | 10.10
